Please go through the items and note down their relative binding activity.
Biological target: HLA-DP401 (DPB1*0401) (human, UniProt P20036 29-222, limits assumed)
Sequence (P20036 29-222 limits assumed, chain 1 of 3, other chains not shown): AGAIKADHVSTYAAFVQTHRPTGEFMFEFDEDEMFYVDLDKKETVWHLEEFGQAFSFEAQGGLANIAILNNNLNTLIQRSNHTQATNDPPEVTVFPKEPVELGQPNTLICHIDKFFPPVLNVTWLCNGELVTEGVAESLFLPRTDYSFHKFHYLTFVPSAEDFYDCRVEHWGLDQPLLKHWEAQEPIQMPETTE
Experiment: competition ELISA, tracer biotin-Oxy 271-287

Problem: Supply measured relative binding activity of CKYKFENWGACDGGT (also called MDK13) [MDK 84-98] in your reply.
Result: 52 IC50 ratio to reference peptide

Problem: Answer with the recorded relative binding activity for the binder listed here: MQHRGFLLLTLLALL (synthetic 15-mer of the human midkine precursor; also called peptide 1-15) [MDK 1-15]
Result: 20 IC50 ratio to reference peptide

Problem: Provide relative binding activity value for the following binder: CRVPCNWKKEFGADC (also called MDK10) [MDK 70-84]
Result: 7 IC50 ratio to reference peptide

Problem: # return recorded relative binding activity for entry RGFLLLTLLALLALT (synthetic 15-mer of the human midkine precursor; also called MDK2; peptide 4-18) [MDK 4-18]
Result: 6 IC50 ratio to reference peptide

Problem: Quickly give me recorded relative binding activity for KEFGADCKYKFENWG (also called MDK12) [MDK 78-92]
Result: 167 IC50 ratio to reference peptide

Problem: Assign relative binding activity to the following record: LTLLALLALTSAVAK (synthetic 15-mer of the human midkine precursor; also called MDK3; peptide 9-23) [MDK 9-23]
Result: 94 IC50 ratio to reference peptide

Origin of values: patent US20110159022A1
